Where do these numbers come from? They come from paper PMC10525797.

- Assay remarks: in vitro
- Settings: human
Observation type: IC50 (µg/mL)
Report the value in µg/mL with no unit label.

For the compound shown here, O=C1CCC(=O)NCCCCCN(O)C(=O)CCC(=O)NCCCCCN(O)C(=O)CCC(=O)NCCCCCN1 [(6), dehydroxynocardamine] , give the reported IC50. 14

And for CO[C@H]1/C=C\C=C(/C)C(=O)NC2=CC(=O)C(O)=C(C[C@@H](C)C[C@H](OC)[C@H](O)[C@@H](C)/C=C(\C)[C@@H]1OC(N)=O)C2=O ? 4.25

Request: CO[C@H]1C[C@H](C)Cc2cc(O)cc(c2)NC(=O)/C(C)=C/CC[C@H](OC)[C@@H](OC(N)=O)/C(C)=C/[C@H](C)[C@H]1O 1.33
